Exercise: for every item that follows, state its recorded IC50, 세포내 유입(internalization) 억제, HEK293E/ACE2-GFP.
- assayed system: SARS-CoV-2 RBD-hFc (SARS-CoV-2, UniProt P0DTC2 319-541)
- procedure text: cell-based or functional assay
Answers are plain numbers, in nM.

Recorded IC50, 세포내 유입(internalization) 억제, HEK293E/ACE2-GFP, per entry:
# binder, experimental result
measured = [
    ("SA3827 (antibody, V domains shown) VH: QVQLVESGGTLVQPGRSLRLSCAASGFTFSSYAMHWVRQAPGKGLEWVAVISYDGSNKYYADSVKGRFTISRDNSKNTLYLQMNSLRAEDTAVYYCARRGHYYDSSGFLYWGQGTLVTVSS VL: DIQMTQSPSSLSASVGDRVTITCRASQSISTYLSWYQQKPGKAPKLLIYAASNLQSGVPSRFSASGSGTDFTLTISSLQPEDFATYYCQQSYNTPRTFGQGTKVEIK", 18.3),
    ("SA3755 (antibody, V domains shown) VH: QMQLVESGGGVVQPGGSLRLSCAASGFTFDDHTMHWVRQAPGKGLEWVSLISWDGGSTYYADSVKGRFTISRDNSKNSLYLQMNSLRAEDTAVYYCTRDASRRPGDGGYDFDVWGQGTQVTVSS VL: QAVVTQEPSLTVSPGGTVTLTCGSSTGTVTRGHWPYWFQQKPGQAPRTLIYDTDNKHSWTPARFSGSLLGGKAALTLSGAQPEDEADYYCLLSYSDSRVFGTGTKVTVL", 35.8),
]

# ---- query binder ----
Challenge: Respond only with IC50, 세포내 유입(internalization) 억제, HEK293E/ACE2-GFP recorded for SA3779 (antibody, V domains shown) VH: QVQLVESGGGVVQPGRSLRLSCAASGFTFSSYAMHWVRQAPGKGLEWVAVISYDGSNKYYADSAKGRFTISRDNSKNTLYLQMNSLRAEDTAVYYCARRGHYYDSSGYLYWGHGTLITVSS VL: DIQMTQSPSSLSASVGDRVTITCRASQRIATYLHWYQQKPGRAPKLLIYAASSLQTGVPSRFSGSGSGTDFTLTINSLQPEDFATYYCQQSYAIPYTFGQGTKLEIK
Response given: 27.3
